src = ChEMBL document CHEMBL1126196

Quick reference for pKi among some compounds
Biological target: UniProt P21730
Sequence (P21730 whole entry): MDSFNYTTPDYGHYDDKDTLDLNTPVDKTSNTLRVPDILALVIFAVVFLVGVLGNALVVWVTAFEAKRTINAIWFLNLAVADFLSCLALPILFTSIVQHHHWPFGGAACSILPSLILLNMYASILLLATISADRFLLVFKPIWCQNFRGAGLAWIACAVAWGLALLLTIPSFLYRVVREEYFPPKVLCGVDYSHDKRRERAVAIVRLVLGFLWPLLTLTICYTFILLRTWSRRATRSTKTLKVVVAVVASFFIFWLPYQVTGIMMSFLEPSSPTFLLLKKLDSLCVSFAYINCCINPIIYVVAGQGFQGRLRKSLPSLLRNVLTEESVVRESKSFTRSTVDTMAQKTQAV
Experiment: Inhibitory activity against [125I]-rC5a binding to C5a anaphylatoxin chemotactic receptor in human polymorphonuclear leukocyte (PMNL) membranes
Square brackets hold non-standard residues; d marks the D form. Peptide text beside a SMILES is read from it. * marks the point of attachment. His(τ-Me) = Cn1cnc(C[C@H](N)C(=O)O)c1; His(π-Me) = Cn1cncc1C[C@H](N)C(=O)O; Hydrocinnamoyl = O=C(CCc1ccccc1)*; hPhe = N[C@@H](CCc1ccccc1)C(=O)O; Cha = N[C@@H](CC1CCCCC1)C(=O)O; Phg = N[C@H](C(=O)O)c1ccccc1
Reminder that pKi means the negative base-10 logarithm of the concentration expressed in mol/L.

>  <Compound>
CSCC[C@H](NC(=O)[C@H](CC(=O)O)NC(=O)[C@H](CCCCN)NC(=O)[C@@H](N)Cc1cncn1C)C(=O)N[C@@H](CCC(N)=O)C(=O)N[C@@H](CC(C)C)C(=O)NCC(=O)N[C@@H](CCCN=C(N)N)C(=O)O (H-[His(π-Me)]KDMQLGR-OH)

>  <pKi>
3.74

$$$$

INPUT: Name the recorded pKi of the item CSCC[C@H](NC(=O)[C@H](CC(=O)O)NC(=O)[C@H](CCCCN)NC(=O)[C@@H](N)CCc1ccccc1)C(=O)N[C@@H](CCC(N)=O)C(=O)N[C@@H](CC(C)C)C(=O)NCC(=O)N[C@@H](CCCNC(=N)N)C(=O)O (H-[hPhe]KDMQLGR-OH) in your answer.
OUTPUT: 4.44

INPUT: Quote pKi reported for CSCC[C@H](NC(=O)[C@H](CC(=O)O)NC(=O)[C@H](CCCCN)NC(=O)[C@@H](N)CC1CCCCC1)C(=O)N[C@@H](CCC(N)=O)C(=O)N[C@@H](CC(C)C)C(=O)NCC(=O)N[C@@H](CCCNC(=N)N)C(=O)O (H-[Cha]KDMQLGR-OH) please.
OUTPUT: 4.89

INPUT: Give the reported pKi for this compound. CSCC[C@H](NC(=O)[C@H](CC(=O)O)NC(=O)[C@H](CCCCN)NC(=O)[C@@H](N)Cc1cccs1)C(=O)N[C@@H](CCC(N)=O)C(=O)N[C@@H](CC(C)C)C(=O)NCC(=O)N[C@@H](CCCNC(=N)N)C(=O)O
OUTPUT: 5.68

INPUT: Fill in reported pKi for this entry: CSCC[C@H](NC(=O)[C@H](CC(=O)O)NC(=O)[C@H](CCCCN)NC(=O)[C@@H](N)c1ccccc1)C(=O)N[C@@H](CCC(N)=O)C(=O)N[C@@H](CC(C)C)C(=O)NCC(=O)N[C@@H](CCCN=C(N)N)C(=O)O (H-[Phg]KDMQLGR-OH)
OUTPUT: 4.51

INPUT: Output measured pKi for this item: CSCC[C@H](NC(=O)[C@H](CC(=O)O)NC(=O)[C@H](CCCCN)NC(=O)[C@@H](N)Cc1ccccc1)C(=O)N[C@@H](CCC(N)=O)C(=O)N[C@@H](CC(C)C)C(=O)NCC(=O)N[C@@H](CCCN=C(N)N)C(=O)O
OUTPUT: 6.59

INPUT: Give me measured pKi, please, for this compound: CSCC[C@H](NC(=O)[C@H](CC(=O)O)NC(=O)[C@H](CCCCN)NC(=O)CCc1ccccc1)C(=O)N[C@@H](CCC(N)=O)C(=O)N[C@@H](CC(C)C)C(=O)NCC(=O)N[C@@H](CCCNC(=N)N)C(=O)O (Hydrocinnamoyl-KDMQLGR-OH)
OUTPUT: 5.36

INPUT: Give pKi for the following compound: CSCC[C@H](NC(=O)[C@H](CC(=O)O)NC(=O)[C@H](CCCCN)NC(=O)[C@H](N)Cc1ccccc1)C(=O)N[C@@H](CCC(N)=O)C(=O)N[C@@H](CC(C)C)C(=O)NCC(=O)N[C@@H](CCCN=C(N)N)C(=O)O
OUTPUT: 4.10

INPUT: Quote pKi reported for CSCC[C@H](NC(=O)[C@H](CC(=O)O)NC(=O)[C@H](CCCCN)NC(=O)[C@@H](N)Cc1cn(C)cn1)C(=O)N[C@@H](CCC(N)=O)C(=O)N[C@@H](CC(C)C)C(=O)NCC(=O)N[C@@H](CCCNC(=N)N)C(=O)O (H-[His(τ-Me)]KDMQLGR-OH) please.
OUTPUT: 4.24
